Each recorded value in this set is attributed to ChEMBL document CHEMBL1782016.

Test: Aqueous solubility of the compound at pH 7.4
Assay type: physicochemical
Settings: buffer
attribute-measured: solubility

Request: Let me know recorded solubility for CC(c1ccncc1)n1[nH]c(=O)c2[nH]c3cc(Cl)ccc3c(=O)c2c1=O.CS(=O)(=O)O (stereo unspecified) , thanks.
Result: > 290 µg/mL

* * *

Molecular target: Integrin alpha-V/beta-3 (Homo sapiens, UniProt P05106+P06756)
Sequence (P05106 27-788 limits assumed): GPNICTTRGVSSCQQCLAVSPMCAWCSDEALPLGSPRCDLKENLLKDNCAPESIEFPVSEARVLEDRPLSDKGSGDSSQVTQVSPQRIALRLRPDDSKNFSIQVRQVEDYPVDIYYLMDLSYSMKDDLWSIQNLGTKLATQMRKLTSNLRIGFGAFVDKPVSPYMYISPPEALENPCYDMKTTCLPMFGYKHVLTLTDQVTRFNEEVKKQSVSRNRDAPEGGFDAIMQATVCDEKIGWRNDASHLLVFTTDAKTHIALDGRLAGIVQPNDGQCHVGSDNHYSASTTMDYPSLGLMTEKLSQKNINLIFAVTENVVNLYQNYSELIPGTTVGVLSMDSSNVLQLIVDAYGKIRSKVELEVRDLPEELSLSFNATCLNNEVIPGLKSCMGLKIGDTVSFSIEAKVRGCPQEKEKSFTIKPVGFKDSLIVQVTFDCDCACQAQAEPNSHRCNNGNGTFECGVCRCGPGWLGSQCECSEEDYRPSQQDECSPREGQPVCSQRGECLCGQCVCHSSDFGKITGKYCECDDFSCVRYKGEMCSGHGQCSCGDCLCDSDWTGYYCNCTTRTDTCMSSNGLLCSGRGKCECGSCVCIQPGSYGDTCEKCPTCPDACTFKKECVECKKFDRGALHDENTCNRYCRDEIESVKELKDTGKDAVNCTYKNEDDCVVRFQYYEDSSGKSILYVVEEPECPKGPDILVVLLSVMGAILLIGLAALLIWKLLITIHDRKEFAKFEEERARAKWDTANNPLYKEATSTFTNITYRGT
Sequence (P06756 31-889 limits assumed): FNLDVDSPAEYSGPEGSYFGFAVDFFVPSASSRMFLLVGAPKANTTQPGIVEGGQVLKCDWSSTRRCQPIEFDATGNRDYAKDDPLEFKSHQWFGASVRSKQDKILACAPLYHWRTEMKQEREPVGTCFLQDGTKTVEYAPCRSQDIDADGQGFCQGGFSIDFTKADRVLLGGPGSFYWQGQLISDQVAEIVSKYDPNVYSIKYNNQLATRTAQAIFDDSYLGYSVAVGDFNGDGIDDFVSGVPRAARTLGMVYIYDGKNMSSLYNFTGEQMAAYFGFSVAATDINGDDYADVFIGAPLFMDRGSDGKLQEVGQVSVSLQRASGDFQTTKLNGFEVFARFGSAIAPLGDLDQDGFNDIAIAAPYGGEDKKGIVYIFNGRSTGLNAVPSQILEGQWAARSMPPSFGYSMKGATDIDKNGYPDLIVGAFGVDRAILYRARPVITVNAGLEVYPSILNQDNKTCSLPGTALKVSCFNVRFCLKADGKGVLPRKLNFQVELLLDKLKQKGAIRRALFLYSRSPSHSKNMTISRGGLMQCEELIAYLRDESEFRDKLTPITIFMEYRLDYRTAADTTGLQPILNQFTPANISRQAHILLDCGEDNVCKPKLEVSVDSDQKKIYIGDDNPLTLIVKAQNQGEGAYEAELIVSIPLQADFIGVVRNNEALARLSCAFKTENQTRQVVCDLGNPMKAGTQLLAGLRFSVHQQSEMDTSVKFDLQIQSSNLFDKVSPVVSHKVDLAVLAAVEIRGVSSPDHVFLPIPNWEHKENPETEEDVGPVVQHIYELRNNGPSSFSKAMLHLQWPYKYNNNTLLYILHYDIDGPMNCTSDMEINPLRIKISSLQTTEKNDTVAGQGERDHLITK
Sequence (P06756 891-1048 limits assumed): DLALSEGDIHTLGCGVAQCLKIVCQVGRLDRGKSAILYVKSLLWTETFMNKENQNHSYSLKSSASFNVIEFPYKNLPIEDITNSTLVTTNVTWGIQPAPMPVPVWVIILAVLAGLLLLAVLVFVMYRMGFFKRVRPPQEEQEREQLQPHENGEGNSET
Test: Antagonist activity at alphavbeta3 integrin receptor
Assay type: functional
attribute-measured: pIC50
Lab note — pIC50 values are minus log10 of concentrations in M.

Use these answered entries as a reference point.
In [3]: df
Out[3]:
                                     smiles  measurement
0  O=C(O)c1ccc(S(=O)(=O)N[C@@H](CNC(=O)c2ccc(N3CCC(NC4=NCCCN4)CC3)c(F)c2)C(=O)O)cc1         9.11
1  O=C(NC[C@H](NS(=O)(=O)c1ccccc1)C(=O)O)c1ccc(N2CCC[C@H](NC3=NCCCN3)C2)cc1F         9.64
2  O=C(NC[C@H](NS(=O)(=O)c1ccccc1)C(=O)O)c1ccc(N2CCC(NC3=NCCCN3)CC2)c(F)c1         9.44
3  O=C(NC[C@H](NS(=O)(=O)c1ccccc1)C(=O)O)c1ccc(N2CCC(NC3=NCCCN3)CC2)c(Cl)c1         9.77
4  O=C(NC[C@H](NS(=O)(=O)c1ccc(O)cc1)C(=O)O)c1ccc(N2CCC(NC3=NCCCN3)CC2)c(F)c1         9.85

Next up:
Request: Let me know recorded pIC50 for `O=C(NC[C@H](NS(=O)(=O)c1ccccc1)C(=O)O)c1ccc(N2CCC[C@H](N=C3NCCCN3)C2)cc1` , thanks.
Result: 9.32

* * *

Experiment: Aqueous solubility of the compound in water
Conditions: water
attribute-measured: solubility (µg/mL)
The figure you give is taken to be in µg/mL; do not add the unit.

Use these answered entries as a reference point.
>>> df
                                     smiles  attribute_measured  measurement
0  O=C(NC[C@H](NS(=O)(=O)c1ccc(O)cc1)C(=O)O)c1ccc(N2CCC(NC3=NCCCN3)CC2)c(F)c1          solubility          100
1                   Clc1ccc(-c2ccccc2Cl)cc1          solubility          637

Request: Let me know recorded solubility for `O=C(NC[C@H](NS(=O)(=O)c1ccccc1)C(=O)O)c1ccc(N2CCC[C@H](NC3=NCCCN3)C2)cc1F` , thanks.
Result: 2800

Request: Let me know recorded solubility for `O=C(NC[C@H](NS(=O)(=O)c1cccs1)C(=O)O)c1ccc(N2CCC[C@H](NC3=NCCCN3)C2)cc1` , thanks.
Result: 3300

* * *

Biological target: Macrophage metalloelastase (Homo sapiens)
Sequence (P39900 whole entry): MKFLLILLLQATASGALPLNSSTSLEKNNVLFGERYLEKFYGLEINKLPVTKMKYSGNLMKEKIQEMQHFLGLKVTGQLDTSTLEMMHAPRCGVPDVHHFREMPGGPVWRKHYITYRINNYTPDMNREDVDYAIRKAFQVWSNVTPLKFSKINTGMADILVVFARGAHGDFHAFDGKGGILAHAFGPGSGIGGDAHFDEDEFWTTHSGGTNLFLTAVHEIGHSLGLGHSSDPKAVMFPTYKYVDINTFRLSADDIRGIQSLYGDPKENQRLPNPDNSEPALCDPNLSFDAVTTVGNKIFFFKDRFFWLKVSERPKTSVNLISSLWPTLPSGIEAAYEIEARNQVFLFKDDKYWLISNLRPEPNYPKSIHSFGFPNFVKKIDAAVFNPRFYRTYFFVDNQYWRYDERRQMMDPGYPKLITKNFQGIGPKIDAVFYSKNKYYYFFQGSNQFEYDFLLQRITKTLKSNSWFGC
Experiment: Inhibition of MMP12
attribute-measured: pIC50
Lab note — pIC50 values are minus log10 of concentrations in M.

Request: Let me know recorded pIC50 for `O=C(O)Cc1ccc(CNC(=O)c2cc(-c3ccc(-c4ccccc4)cc3)cs2)cc1` , thanks.
Result: 7.15

* * *

Experiment: Aqueous solubility of the compound
Format: physicochemical
Conditions: buffer
Reported solubility is given for each of the following compounds.

In [3]: df
Out[3]:
                              smiles   measurement
0  O=c1cc(-c2ccccc2)oc2ccc3ccccc3c12  < 0.15 µg/mL

Request: Let me know recorded solubility for `O=C(O)Cc1ccc(CNC(=O)c2cc(-c3ccc(-c4ccccc4O)cc3)cs2)cc1` , thanks.
Result: 134 µg/mL

Request: Let me know recorded solubility for `O=C(O)Cc1ccc(CNC(=O)c2cc(-c3ccc(-c4ccccc4)cc3)cs2)cc1` , thanks.
Result: < 1 µg/mL

* * *

Experiment: Oral bioavailability in rat
Details: in vivo
attribute-measured: bioavailability (%)
The figure you give is taken to be in %; do not add the unit.

Request: Let me know recorded bioavailability for `CS(=O)(=O)O.O=c1c2ccc(Cl)cc2[nH]c2c(O)nn(Cc3ccncc3)c(=O)c12` , thanks.
Result: 5

* * *

Target: Integrin alpha-V/beta-3 (Homo sapiens, UniProt P05106+P06756)
Test: Antagonist activity at alphavbeta3 integrin receptor human VSMC assessed as inhibition of vitronectin-induced cell adhesion
Assay type: functional, cell-based
Reported IC50 is given for each of the following molecules.
The figure you give is taken to be in nM; do not add the unit.

Use these answered entries as a reference point.
In [3]: df
Out[3]:
                                     smiles                                 tested_on  measurement
0  O=C(NC[C@H](NS(=O)(=O)c1ccccc1)C(=O)O)c1ccc(N2CCC(NC3=NCCCN3)CC2)cc1  Integrin alpha-V/beta-3 (Homo sapiens, UniProt P05106+P06756)          190
1  O=C(NC[C@H](NS(=O)(=O)c1ccccc1)C(=O)O)c1ccc(N2CCC[C@H](NC3=NCCCN3)C2)cc1F  Integrin alpha-V/beta-3 (Homo sapiens, UniProt P05106+P06756)           16
2  COc1cc(C(=O)NC[C@H](NS(=O)(=O)c2ccccc2)C(=O)O)ccc1N1CCC(NC2=NCCCN2)CC1  Integrin alpha-V/beta-3 (Homo sapiens, UniProt P05106+P06756)          110

Next up:
Request: Enter IC50 (test system Integrin alpha-V/beta-3 (Homo sapiens, UniProt P05106+P06756)) for `O=C(NC[C@H](NS(=O)(=O)c1ccccc1)C(=O)O)c1ccc(N2CCC(NC3=NCCCN3)CC2)c(Cl)c1`
Result: 72

* * *

Biological target: Integrin alpha-IIb/beta-3 (Homo sapiens, UniProt P05106+P08514)
Sequence (P05106 27-788 limits assumed): as the sequence (P05106 27-788 limits assumed) above
Sequence (P08514 32-887 limits assumed): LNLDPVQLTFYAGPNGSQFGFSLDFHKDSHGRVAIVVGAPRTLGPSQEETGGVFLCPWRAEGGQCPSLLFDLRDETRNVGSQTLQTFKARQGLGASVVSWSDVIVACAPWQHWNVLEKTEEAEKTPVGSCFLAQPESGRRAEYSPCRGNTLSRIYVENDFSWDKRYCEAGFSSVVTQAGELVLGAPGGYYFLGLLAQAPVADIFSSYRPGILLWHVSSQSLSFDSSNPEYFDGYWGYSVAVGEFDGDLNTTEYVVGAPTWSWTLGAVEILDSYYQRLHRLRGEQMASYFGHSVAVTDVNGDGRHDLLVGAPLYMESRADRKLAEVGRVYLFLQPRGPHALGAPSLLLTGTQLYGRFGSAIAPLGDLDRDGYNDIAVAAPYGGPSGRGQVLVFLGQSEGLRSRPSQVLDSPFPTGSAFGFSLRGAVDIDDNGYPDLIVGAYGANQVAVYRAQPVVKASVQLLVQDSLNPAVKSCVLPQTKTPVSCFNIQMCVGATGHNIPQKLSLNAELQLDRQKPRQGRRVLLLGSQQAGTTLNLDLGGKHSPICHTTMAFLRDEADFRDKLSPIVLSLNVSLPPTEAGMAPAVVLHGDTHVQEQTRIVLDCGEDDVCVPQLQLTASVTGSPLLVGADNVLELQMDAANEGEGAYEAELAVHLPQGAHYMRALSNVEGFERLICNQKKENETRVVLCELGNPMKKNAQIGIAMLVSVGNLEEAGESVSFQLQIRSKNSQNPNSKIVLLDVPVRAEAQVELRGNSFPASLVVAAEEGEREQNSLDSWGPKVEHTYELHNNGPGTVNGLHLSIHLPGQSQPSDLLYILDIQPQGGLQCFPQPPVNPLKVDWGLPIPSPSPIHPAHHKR
Sequence (P08514 891-1039 limits assumed): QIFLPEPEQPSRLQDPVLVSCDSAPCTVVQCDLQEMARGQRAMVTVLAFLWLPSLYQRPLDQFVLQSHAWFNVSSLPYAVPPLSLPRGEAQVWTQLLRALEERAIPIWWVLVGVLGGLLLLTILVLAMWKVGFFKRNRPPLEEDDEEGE
Experiment: Antagonist activity at alpha2bbeta3 integrin receptor
pIC50: −log10 of the molar value.
True means recorded pIC50 is 9 or above; False means it is below 9.

Some solved cases for reference:
                                     smiles                                 tested_on  discrete_label
0  O=C(NC[C@H](NS(=O)(=O)c1ccccc1)C(=O)O)c1ccc(N2CCC(NC3=NCCCN3)CC2)c(Cl)c1  Integrin alpha-IIb/beta-3 (Homo sapiens, UniProt P05106+P08514)            True
1  O=C(NC[C@H](NS(=O)(=O)c1cccs1)C(=O)O)c1ccc(N2CCC[C@H](NC3=NCCCN3)C2)cc1  Integrin alpha-IIb/beta-3 (Homo sapiens, UniProt P05106+P08514)            True
2  O=C(NC[C@H](NS(=O)(=O)c1ccccc1)C(=O)O)c1ccc(N2CCC(NC3=NCCCN3)CC2)c(F)c1  Integrin alpha-IIb/beta-3 (Homo sapiens, UniProt P05106+P08514)            True
3  COc1cc(C(=O)NC[C@H](NS(=O)(=O)c2ccccc2)C(=O)O)ccc1N1CCC(NC2=NCCCN2)CC1  Integrin alpha-IIb/beta-3 (Homo sapiens, UniProt P05106+P08514)            True

Request: Decide: pIC50 of `O=C(NC[C@H](NS(=O)(=O)c1ccc(O)cc1)C(=O)O)c1ccc(N2CCC(NC3=NCCCN3)CC2)c(F)c1` >= 9?
Result: True

Request: Decide: pIC50 of `O=C(NC[C@H](NS(=O)(=O)c1ccccc1)C(=O)O)c1ccc(N2CCC(NC3=NCCCN3)CC2)cc1` >= 9?
Result: False

* * *

Biological target: Integrin alpha-V/beta-3 (Homo sapiens, UniProt P05106+P06756)
Test: Antagonist activity at alphavbeta3 integrin receptor human VSMC assessed as inhibition of vitronectin-induced cell adhesion
Type: functional, cell-based
pIC50: −log10 of the molar value.
1 means recorded pIC50 is 7 or above; 0 means it is below 7.

In [3]: df
Out[3]:
                                     smiles  discrete_label
0  O=C(O)c1ccc(S(=O)(=O)N[C@@H](CNC(=O)c2ccc(N3CCC(NC4=NCCCN4)CC3)c(F)c2)C(=O)O)cc1               0
1  O=C(NC[C@H](NS(=O)(=O)c1ccccc1)C(=O)O)c1ccc(N2CCC(NC3=NCCCN3)CC2)c(O)c1               0
2  O=C(NC[C@H](NS(=O)(=O)c1cccs1)C(=O)O)c1ccc(N2CCC[C@H](NC3=NCCCN3)C2)cc1               1
3  O=C(NC[C@H](NS(=O)(=O)c1ccc(O)cc1)C(=O)O)c1ccc(N2CCC(NC3=NCCCN3)CC2)c(F)c1               1
4  O=C(NC[C@H](NS(=O)(=O)c1ccc(O)cc1)C(=O)O)c1ccc(N2CCC(NC3=NCCCN3)CC2)c(O)c1               0
5  O=C(NC[C@H](NS(=O)(=O)c1ccccc1)C(=O)O)c1ccc(N2CCC[C@H](N=C3NCCCN3)C2)cc1               1

Request: Decide: pIC50 of `O=C(NC[C@H](NS(=O)(=O)c1ccccc1)C(=O)O)c1ccc(N2CCC(NC3=NCCCN3)CC2)c(F)c1` >= 7?
Result: 1
